# Assay System: T1, hVEGF-A (8-109) (human, UniProt P15692 214-315)
# T1 construct: residue numbers count on mature VEGF-A; dimer
# T1 sequence (looked up): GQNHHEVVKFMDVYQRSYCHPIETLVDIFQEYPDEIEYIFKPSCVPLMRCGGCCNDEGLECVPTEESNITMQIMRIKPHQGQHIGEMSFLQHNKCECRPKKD
# Assay Summary: spot phage ELISA
Documented S/N across a set of binders
Parameter: S/N

Binder	Parameter	Value Reported
GCKLFEPLWGCKQDSDCLAGCVCRWYESCG (designed binder) [VEGF_CKP9.96]	S/N	18.4
GCLDPSFNWSLYCKQDSDCLAGCVCQMYDSCG (designed binder) [VEGF_CKP7.57]	S/N	17.4
GCQLLQPLWGCKQDSDCLAGCVCRWYQSCG (designed binder) [VEGF_CKP9.71]	S/N	16.5
GCGETVFEQFLWCKQDSDCLAGCVCGPNGFCG (designed binder) [VEGF_CKP2]	S/N	48.1
GCKKWQWWYMCKQDSDCLAGCVCYPWTECG (designed binder) [VEGF_CKP4]	S/N	35.3
GCDDPSFDWSVYCKQDSDCLAGCVCRMYDSCG (designed binder) [VEGF_CKP7.2]	S/N	21.5
GCRTPWEPHDITCKQDSDCLAGCVCGPNGFCG (designed binder) [VEGF_CKP11]	S/N	57.5
GCKDTTFNWGLFCKQDSDCLAGCVCQLYQSCG (designed binder) [VEGF_CKP7.78]	S/N	11.8
GCLDRTLNWALYCKQDSDCLAGCVCQMYNSCG (designed binder) [VEGF_CKP7.54]	S/N	9.3
GCNIMLPFWGCGWSMDCLAGCVCQYYQSCG (designed binder) [VEGF_CKP9.54.76]	S/N	42.2
GCQDPTFNWAEYCKQDSDCLAGCVCQLYQSCG (designed binder) [VEGF_CKP7.19]	S/N	11.1
GCQLMQPFWGCKQDSDCLAGCVCHWYQSCG (designed binder) [VEGF_CKP9]	S/N	7.4
GCQDPTVNWAVYCKQDSDCLAGCVCQFYQSCG (designed binder) [VEGF_CKP7.17]	S/N	13.4
